The measurements presented in this section are drawn from paper PMC11259170.

biological target: hGPR65 (Homo sapiens, UniProt Q8IYL9); construct: expressed in transfected cells; host or cells: HeLa (ATCC CCL-2), lentiviral transduction, pLX317; experiment: cAMP detection in HeLa expression cell line, hGPR65; assay type: cell-based; conditions: HeLa, 2nd hGPR column pair; relative to 100uM forskolin (100%) and DMSO (0%); NA = no activity; read-out: hGPR Max Activity %
Sequence (Q8IYL9 whole entry): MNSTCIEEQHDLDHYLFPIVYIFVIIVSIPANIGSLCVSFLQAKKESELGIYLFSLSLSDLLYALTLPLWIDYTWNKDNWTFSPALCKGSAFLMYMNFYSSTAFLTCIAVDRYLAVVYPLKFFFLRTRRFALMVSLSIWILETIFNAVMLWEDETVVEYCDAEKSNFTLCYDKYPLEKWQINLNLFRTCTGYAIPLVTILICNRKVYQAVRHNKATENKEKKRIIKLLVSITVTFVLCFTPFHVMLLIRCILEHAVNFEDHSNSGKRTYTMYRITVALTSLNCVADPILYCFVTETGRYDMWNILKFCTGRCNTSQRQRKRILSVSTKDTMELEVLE
measurement.kind: Emax

Recorded results for 6 molecules are shown here.
Cc1ccc(NC(=O)c2cnn3c(O)cc(COc4ccccc4)nc23)cc1 22.4%
COc1cc(-c2cc(O)n3ncc(C(=O)Nc4ccc(C)cc4)c3n2)ccc1Cl 60.5%
COc1cccc(-c2cc(O)n3ncc(C(=O)Nc4ccc(C)cc4)c3n2)c1 73.6%
COCc1ccc(-c2cc(O)n3ncc(C(=O)Nc4ccccc4)c3n2)cc1 79.5%
Cc1ccc(NC(=O)c2cnn3c(O)cc(-c4ccc(N5CCN(C)CC5)nc4)nc23)cc1 4.57%
COCc1ccc(-c2cc(O)n3ncc(C(=O)Nc4ccc(C(C)C)cc4)c3n2)cc1 73.7%

Identify measured Emax corresponding to `Cc1ccc(NC(=O)c2cnn3c(O)cc(-c4ccc(N5CCN(C)CC5)c(Cl)c4)nc23)cc1`
36.9%
